# pIC50 per record follows
- SYSTEM_NAME: Bromodomain-containing protein 3 (Homo sapiens, UniProt Q15059)
- Sequence (Q15059 whole entry): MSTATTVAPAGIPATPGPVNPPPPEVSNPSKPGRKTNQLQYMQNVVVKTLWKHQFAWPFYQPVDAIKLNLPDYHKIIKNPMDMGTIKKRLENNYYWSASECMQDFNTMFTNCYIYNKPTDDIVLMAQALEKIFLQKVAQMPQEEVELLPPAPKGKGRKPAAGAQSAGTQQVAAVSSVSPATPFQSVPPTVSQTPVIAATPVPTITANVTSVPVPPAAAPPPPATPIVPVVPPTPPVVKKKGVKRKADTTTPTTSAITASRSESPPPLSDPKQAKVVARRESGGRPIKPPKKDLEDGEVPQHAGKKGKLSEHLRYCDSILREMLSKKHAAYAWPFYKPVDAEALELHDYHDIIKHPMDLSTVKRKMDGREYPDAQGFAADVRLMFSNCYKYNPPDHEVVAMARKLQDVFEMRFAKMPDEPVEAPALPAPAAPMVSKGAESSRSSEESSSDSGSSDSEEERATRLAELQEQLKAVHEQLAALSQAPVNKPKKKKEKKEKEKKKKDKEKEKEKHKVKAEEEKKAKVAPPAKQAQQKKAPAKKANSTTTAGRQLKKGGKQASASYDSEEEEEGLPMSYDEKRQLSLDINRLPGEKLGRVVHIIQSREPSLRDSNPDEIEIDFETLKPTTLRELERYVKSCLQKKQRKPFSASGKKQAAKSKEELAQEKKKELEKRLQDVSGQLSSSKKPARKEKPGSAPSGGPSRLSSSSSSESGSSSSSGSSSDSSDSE
- ASSAY_REMARKS: Inhibition of human BRD3 measured by TR-FRET assay
In simple prose, pIC50 is minus the logarithm base ten of a concentration in moles per litre.

Kindly state the measured pIC50 obtained for Cc1noc(C)c1-c1cnc2c3ccc(C(C)(C)O)cc3n([C@H](c3ccccc3)C3CCOCC3)c2c1 with Bromodomain-containing protein 3 (Homo sapiens, UniProt Q15059).
8.72

Here is the next item to consider.
Kindly state the measured pIC50 obtained for Cc1nnn(C)c1-c1cnc2c3ccc(C(C)(C)O)cc3n([C@H](c3ccccc3)C3CCOCC3)c2c1 [EZOBRESIB] with Bromodomain-containing protein 3 (Homo sapiens, UniProt Q15059).
8.96

* * *

- ASSAY_REMARKS: AUC in human LG0787F cells xenografted in NSG mouse at 0.25 mg/kg/day, po bid
- Type: ADME, organism-based
- Set-up: dose 0.25 mg/kg/day, route po
- RUN_CONDITIONS: in vivo
MEASURED_METRIC: AUC (µM·h)
Express the result in µM·h but write the number alone.

Entry Cc1nnn(C)c1-c1cnc2c3ccc(C(C)(C)O)cc3n([C@H](c3ccccc3)C3CCOCC3)c2c1 [EZOBRESIB] : reported AUC = ?
0.3

* * *

- ASSAY_REMARKS: Elimination half life in rat at 1 mg/kg, iv
- Format: ADME, organism-based
- RUN_CONDITIONS: in vivo, read-out: beta t1/2 (converted)
MEASURED_METRIC: half-life (h)
Express the result in h but write the number alone.

Entry Cc1nnn(C)c1-c1cnc2c3ccc(C(C)(C)O)cc3n([C@H](c3ccccc3)C3CCOCC3)c2c1 [EZOBRESIB] : reported half-life = ?
4.2

* * *

# AUC(0-t) at 7 h per record follows
- ASSAY_REMARKS: AUC (0 to 7 hrs) in mouse at 30 mg/kg, po
- Assay type: ADME, organism-based
- Design: time < 7 hr, dose 30 mg/kg, route po
- RUN_CONDITIONS: in vivo
Express the result in µM·h but write the number alone.

Entry Cc1noc(C)c1-c1cc(C(N)=O)c2c3ccc(C(C)(C)O)cc3n(Cc3ccccc3)c2c1 : reported AUC(0-t) at 7 h = ?
27.1

Entry Cc1nnn(C)c1-c1cnc2c3ccc(C(C)(C)O)cc3n([C@H](c3ccccc3)C3CCOCC3)c2c1 : reported AUC(0-t) at 7 h = ?
49.6

Entry Cc1noc(C)c1-c1cc(C(N)=O)c2c3ccc(C(C)(C)O)cc3n([C@H](c3ccc(F)cc3)C3CCOCC3)c2c1 : reported AUC(0-t) at 7 h = ?
4.3

Entry Cc1noc(C)c1-c1cnc2c3ccc(C(C)(C)O)cc3n([C@H](c3ccccc3)C3CCOCC3)c2c1 : reported AUC(0-t) at 7 h = ?
45.7

Entry Cc1noc(C)c1-c1cc(C(N)=O)c2c3ccc(C(C)(C)O)cc3n([C@H](c3ccccc3)C3CCOCC3)c2c1 : reported AUC(0-t) at 7 h = ?
1

* * *

- ASSAY_REMARKS: Volume of distribution at steady state in mouse at 1.75 mg/kg, iv
- Format: ADME, organism-based
- RUN_CONDITIONS: in vivo, read-out: Vdss
MEASURED_METRIC: Vd (L/kg)
Express the result in L/kg but write the number alone.

Entry Cc1nnn(C)c1-c1cnc2c3ccc(C(C)(C)O)cc3n([C@H](c3ccccc3)C3CCOCC3)c2c1 : reported Vd = ?
1.9
